Reported values of inhibition of SARS-CoV-2 cytopathic effect for individual entries
# Tested on: Vero E6 infected with SARS-CoV-2
# test_method_notes: inhibition of SARS-CoV-2 cytopathic effect; higher = more antiviral protection, active = above 15
# test_settings: 10000 nM; 48 h
Please respond with the number in % and leave the unit unwritten.

Please review the entries below; each comes with its answer.
Nc1cc2c3ccccc3ccc2c2ccccc12 :: 1.34
CC(=O)[O-].CC(=O)[O-].N.NC1CCCCC1.[Cl-].[Cl-].[Pt+4] :: 23.8

Query molecule follows.
Data point: CCC(=O)c1cc(-c2ccc(Cl)cc2)n(-c2ccc(S(N)(=O)=O)cc2)c1C ; inhibition of SARS-CoV-2 cytopathic effect = 3.3

Hello, the source for this data is the supplement of paper PMC13380429, in case you need it.
